TESTED ON: cdk1/cyclinB (Homo sapiens)
PROTOCOL NOTES: Cyclin dependent kinase 1 assay (cdk1/cyclinB), 32P incorporation, filter plate
RECORDED CONDITIONS: retinoblastoma substrate, 12 mM ATP, 25° C., 15 minutes; read-out: Inhibition of Cdks: IC50 Cdk1/B
pIC50: −log10 of the molar value.
PROPERTY NAME: pIC50

Here is how some compounds turned out for pIC50.
CC1(C)CN(c2ccc(Nc3ncc4cc(F)c(NC(=O)NC5CCCCC5)nc4n3)cc2)CCN1    6.58
CCN(C(=O)NC1CCCCC1)c1ccc2cnc(Nc3ccc(N4CCNCC4)cc3)nc2n1    5.76
C[C@@H]1CN(c2ccc(Nc3ncc4ccc(NC(=O)NC5CCCCC5)nc4n3)cc2)C[C@H](C)N1    7.16
O=C(Nc1nc2nc(Nc3ccc(N4CCNCC4)cc3)ncc2cc1F)NC1CCCCC1    6.80
CC(C)C[C@@H](CO)NC(=O)Nc1ccc2cnc(Nc3ccc(N4CCNCC4)cc3)nc2n1    6.40

(A) C[C@@H]1CN(c2ccc(Nc3ncc4ccc(NC(=O)NC(C)(C)C)nc4n3)cc2)C[C@H](C)N1
(B) Cc1cc(Nc2ncc3ccc(NC(=O)NC(C)(C)C)nc3n2)ccc1F
(C) C[C@@H]1CN(c2ccc(Nc3ncc4cc(F)c(NC(=O)NC(C)(C)C)nc4n3)cc2)C[C@H](C)N1
(D) CC(C)(C)NC(=O)Nc1ccc2cnc(Nc3ccccc3)nc2n1
Returns the items ordered by pIC50, from maximum to minimum. To answer, arrange all of the labels according to the requested order. B, D, A, C

(1) O=C(NCCCN1CCOCC1)Nc1ccc2cnc(Nc3ccc(F)cc3)nc2n1
(2) CC(C)NC(=O)Nc1ccc2cnc(Nc3ccc(N4CCNCC4)cc3)nc2n1
Quick one: lower pIC50, 1 or 2 ? Write down the label of the entry you select. 1
(1: 5.20, 2: 6.59)

(1) CN(C)CCNC(=O)Nc1ccc2cnc(Nc3ccc(F)cc3)nc2n1
(2) C[C@@H]1CN(c2ccc(Nc3ncc4cc(F)c(NC(=O)NC5CCCCC5)nc4n3)cc2)C[C@H](C)N1
Please choose the item with the lower pIC50 value from this pair: 1 and 2 Returns: label corresponding to the selected item. 1
(1: 5.74, 2: 6.33)

###

TESTED ON: FGF-1 (flg) receptor tyrosine kinase (FGFr) (Homo sapiens, UniProt P11362)
Construct: amplify a fragment of DNA that codes for the intracellular tyrosine kinase domain; crude cell lysate used
Sequence (P11362 478-767 limits assumed): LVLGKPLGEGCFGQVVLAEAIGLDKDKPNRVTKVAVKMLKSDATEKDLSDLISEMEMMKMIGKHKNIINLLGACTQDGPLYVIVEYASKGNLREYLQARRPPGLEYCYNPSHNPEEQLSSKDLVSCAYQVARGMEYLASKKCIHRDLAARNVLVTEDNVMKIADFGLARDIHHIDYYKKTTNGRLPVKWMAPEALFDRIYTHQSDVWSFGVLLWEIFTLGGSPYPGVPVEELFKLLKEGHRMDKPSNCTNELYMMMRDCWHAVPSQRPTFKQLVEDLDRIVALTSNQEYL
PROTOCOL NOTES: FGF Receptor Tyrosine Kinase Assay
RECORDED CONDITIONS: glutamate-tyrosine co-polymer substrate; read-out: Inhibition of Tyrosine Kinases: IC50 in parenthesis FGFr
PROPERTY NAME: IC50 (µM)

(I) O=C(Nc1nc2nc(Nc3ccc(N4CCNCC4)cc3)ncc2cc1Br)NC1CCCCC1 [Compound 55]
(II) CN(C(=O)NC1CCCCC1)c1ccc2cnc(Nc3ccc(N4CCNCC4)cc3)nc2n1 [Compound 70]
(III) O=C(Nc1nc2nc(Nc3ccc(N4CCNCC4)cc3)ncc2cc1F)NC1CCCCC1 [Compound 11]
(IV) Cc1cc2cnc(Nc3ccc(N4C[C@@H](C)N[C@@H](C)C4)cc3)nc2nc1NC(=O)NC(C)(C)C [Compound 117]
Order them by IC50, ascending: the molecules above. Submit the labels in the order that the ranking request calls for. IV, I, III, II
(IV: 0.061 µM, I: 0.151 µM, III: 0.284 µM, II: 1.15 µM)

###

TESTED ON: cdk1/cyclinB (Homo sapiens, UniProt P06493)
Sequence (P06493 whole entry, species assumed): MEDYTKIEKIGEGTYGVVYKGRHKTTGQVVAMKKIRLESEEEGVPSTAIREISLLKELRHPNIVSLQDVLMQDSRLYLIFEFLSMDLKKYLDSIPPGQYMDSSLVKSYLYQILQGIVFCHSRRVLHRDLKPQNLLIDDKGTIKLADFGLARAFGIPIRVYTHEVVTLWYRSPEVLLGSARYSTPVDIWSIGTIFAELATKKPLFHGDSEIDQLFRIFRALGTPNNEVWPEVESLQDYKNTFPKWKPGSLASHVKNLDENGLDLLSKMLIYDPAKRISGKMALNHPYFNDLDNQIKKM
Sequence (P14635 whole entry partner, species assumed): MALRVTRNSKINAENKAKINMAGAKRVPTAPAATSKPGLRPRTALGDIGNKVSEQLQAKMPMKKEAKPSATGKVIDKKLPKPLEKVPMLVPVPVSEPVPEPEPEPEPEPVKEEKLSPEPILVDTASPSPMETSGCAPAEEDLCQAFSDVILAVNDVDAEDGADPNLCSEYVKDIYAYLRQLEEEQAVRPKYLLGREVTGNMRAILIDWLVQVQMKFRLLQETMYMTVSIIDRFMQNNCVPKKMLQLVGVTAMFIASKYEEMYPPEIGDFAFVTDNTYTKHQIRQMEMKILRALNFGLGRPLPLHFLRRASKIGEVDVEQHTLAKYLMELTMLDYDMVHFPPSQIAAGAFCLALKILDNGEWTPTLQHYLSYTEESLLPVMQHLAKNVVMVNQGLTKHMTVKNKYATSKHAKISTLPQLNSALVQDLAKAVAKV
PROTOCOL NOTES: Cyclin dependent kinase 1 assay (cdk1/cyclinB), 32P incorporation, filter plate
RECORDED CONDITIONS: retinoblastoma substrate, 12 mM ATP, 25° C., 15 minutes; read-out: Inhibition of Cdks: IC50 Cdk1/B
pIC50: −log10 of the molar value.
PROPERTY NAME: pIC50

The examples below pair each entry with its known result.
CN(C(=O)NC1CCCCC1)c1ccc2cnc(Nc3ccc(N4CCNCC4)cc3)nc2n1    5.84
CC(=O)N1CCN(c2ccc(Nc3ncc4ccc(NC(=O)NC(C)(C)C)nc4n3)cc2)CC1    6.33

(a) O=C(NCCCO)Nc1ccc2cnc(Nc3ccc(N4CCNCC4)cc3)nc2n1
(b) NCCNC(=O)Nc1ccc2cnc(Nc3ccc(F)cc3)nc2n1
Quick one: lower pIC50, a or b ? To answer, give the label that identifies your chosen option. a

###

TESTED ON: cdk2/cyclinE (Homo sapiens, UniProt P24941)
PROTOCOL NOTES: Cyclin dependent kinase 2 assay (cdk2/cyclinE), 32P incorporation, filter plate
Assay type: biochemical
RECORDED CONDITIONS: retinoblastoma substrate, 12 mM ATP, 25° C., 15 minutes; read-out: Inhibition of Cdks: IC50 Cdk2/E
PROPERTY NAME: IC50 (nM)

C[C@@H]1CN(c2ccc(Nc3ncc4cc(F)c(NC(=O)NC5CCCCC5)nc4n3)cc2)C[C@H](C)N1    126

(P) CC1(C)CN(c2ccc(Nc3ncc4cc(F)c(NC(=O)NC5CCCCC5)nc4n3)cc2)CCN1
(Q) Cc1cc2cnc(Nc3ccc(N4C[C@@H](C)N[C@@H](C)C4)cc3)nc2nc1NC(=O)NC(C)(C)C
# query: argmin of IC50 over P and Q Write down the label attached to your selection. P

###

Counter-ions that a name gives are not always drawn.
Recorded measurements of melting point, one per entry

Use these answered entries as a reference point.
O=C(NCCCN1CCOCC1)Nc1ccc2cnc(Nc3ccc(F)cc3)nc2n1 [Compound 96]    253 to 256 °C
C[C@@H]1CN(c2ccc(Nc3ncc4ccc(NC(=O)NC(C)(C)C)nc4n3)cc2)C[C@H](C)N1 [Compound 49]    245 °C (dec.)
CCNC(=O)Nc1cc(C)c2cnc(Nc3ccc(N4CCNCC4)cc3)nc2n1 [Compound 28]    220 to 222 °C
C[C@@H]1CN(c2ccc(Nc3ncc4cc(Br)c(NC(=O)NC5CCCCC5)nc4n3)cc2)C[C@H](C)N1 (as salt: salt) [Compound 95]    198 °C (dec.)
O=C(Nc1ccc2cnc(Nc3ccc(N4CCNCC4)cc3)nc2n1)NC1CCCCC1 (as salt: salt) [Compound 9]    200 °C (dec.)

// melting point lookup, key: C[C@@H]1CN(c2ccc(Nc3ncc4ccc(NC(=O)NC5CCCCC5)nc4n3)cc2)C[C@H](C)N1 [Compound 50] 228 °C (dec.)

How about this compound: CC(=O)N1CCN(c2ccc(Nc3ncc4ccc(NC(=O)NCCCN5CCOCC5)nc4n3)cc2)CC1 [Compound 103] 221 to 225 °C (dec.)

Likewise for CC(=O)N1CCN(c2ccc(Nc3ncc4ccc(NC(=O)NC(C)(C)C)nc4n3)cc2)CC1 [Compound 5] ? 206 to 208 °C (dec.)

Repeat with Cc1cc(NC(=O)NC(C)(C)C)nc2nc(Nc3ccc(N4CCNCC4)cc3)ncc12 [Compound 4] 230 to 232 °C (dec.)

Further, for Cc1cc(Nc2ncc3ccc(NC(=O)NC(C)(C)C)nc3n2)ccc1F [Compound 46] ? 230 °C (dec.)

// next record CC(C)NC(=O)Nc1ccc2cnc(Nc3ccc(N4CCNCC4)cc3)nc2n1 (as salt: salt) [Compound 48] 190 °C (dec.)

Also, Cc1cc(NS(=O)(=O)N(C)C)nc2nc(Nc3ccc(N4CCNCC4)cc3)ncc12 [Compound 71] please. 228 to 230 °C (dec.)

###

TESTED ON: cdk2/cyclinA (Homo sapiens)
PROTOCOL NOTES: Cyclin dependent kinase 2 assay (cdk2/cyclinA), 32P incorporation, filter plate
RECORDED CONDITIONS: retinoblastoma substrate, 12 mM ATP, 25° C., 15 minutes; read-out: Inhibition of Cdks: IC50 Cdk2/A
PROPERTY NAME: IC50 (nM)

CC(=O)N1CCN(c2ccc(Nc3ncc4ccc(NC(=O)NC(C)(C)C)nc4n3)cc2)CC1    130

(a) O=C(NCCCN1CCOCC1)Nc1ccc2cnc(Nc3ccc(F)cc3)nc2n1
(b) CCN(C(=O)NC1CCCCC1)c1ccc2cnc(Nc3ccc(N4CCNCC4)cc3)nc2n1
Choose between a and b : whose measured IC50 value is numerically larger? Write down the label of the entry you select. b
(b: 1950 nM, a: 1110 nM)

(A) CC(C)(C)NC(=O)Nc1ccc2cnc(Nc3ccccc3)nc2n1
(B) O=C(NCCCO)Nc1ccc2cnc(Nc3ccc(N4CCNCC4)cc3)nc2n1
Which numeric IC50 is bigger, that of A or that of B ? Refer to your chosen item by its label in the answer. B
(B: 1560 nM, A: 54 nM)

###

TESTED ON: cdk2/cyclinE (Homo sapiens)
PROTOCOL NOTES: Cyclin dependent kinase 2 assay (cdk2/cyclinE), 32P incorporation, filter plate
RECORDED CONDITIONS: retinoblastoma substrate, 12 mM ATP, 25° C., 15 minutes; read-out: Inhibition of Cdks: IC50 Cdk2/E
pIC50: −log10 of the molar value.
PROPERTY NAME: pIC50

Record excerpt, results attached:
CC(=O)N1CCN(c2ccc(Nc3ncc4ccc(NC(=O)NC(C)(C)C)nc4n3)cc2)CC1    6.89
CC(C)C[C@@H](CO)NC(=O)Nc1ccc2cnc(Nc3ccc(N4CCNCC4)cc3)nc2n1    6.50
Cc1cc2cnc(Nc3ccc(N4C[C@@H](C)N[C@@H](C)C4)cc3)nc2nc1NC(=O)NC1CCCCC1    5.43

(1) CC(C)NC(=O)Nc1ccc2cnc(Nc3ccc(N4CCNCC4)cc3)nc2n1
(2) C[C@@H]1CN(c2ccc(Nc3ncc4ccc(NC(=O)NC(C)(C)C)nc4n3)cc2)C[C@H](C)N1
From the items above, decide which of 1 and 2 has the lower pIC50 reading. Lab log: write the label of the selected item as the result. 2

(1) CC(C)[C@H](CO)NC(=O)Nc1ccc2cnc(Nc3ccc(N4CCNCC4)cc3)nc2n1
(2) CN(C)CCNC(=O)Nc1ccc2cnc(Nc3ccc(F)cc3)nc2n1
# min-compare on pIC50 between 1 and 2 // return label of chosen record 2
(2: 6.39, 1: 7.26)

The reported measurements were obtained from patent US7053070B2.
